test: Selectivity for Trypanosoma cruzi triosephosphate isomerase over human triosephosphate isomerase
PROPERTY: Ratio

Below: 5 compounds and their reported Ratio.
>  <STRUCTURE SMILES STRING>
O=C(N/N=C/c1ccc([N+](=O)[O-])s1)N1CCOCC1

>  <Ratio>
> 4

$$$$
>  <STRUCTURE SMILES STRING>
[O-][n+]1onc2ccc(CBr)cc21

>  <Ratio>
> 4

$$$$
>  <STRUCTURE SMILES STRING>
[O-][n+]1onc2ccc(/C=C\c3ccc(Cl)cc3)cc21

>  <Ratio>
> 4

$$$$
>  <STRUCTURE SMILES STRING>
Nc1ccc2c(c1)[n+]([O-])c1cc(Cl)ccc1[n+]2[O-]

>  <Ratio>
> 4

$$$$
>  <STRUCTURE SMILES STRING>
CC1(C)[N+]([O-])=c2ccc(COc3ccc(C=O)cc3)cc2=[N+]1[O-]

>  <Ratio>
> 4

$$$$

Okay, now this compound:
Given CCCCNC(=O)/C=C/c1ccc([N+](=O)[O-])o1 , state its recorded Ratio.
> 4

---

test system: Trypanosoma cruzi; experiment: Antiparasitic activity against Trypanosoma cruzi T2 epimastigotes assessed as growth inhibition at 25 uM after 5 days; type: functional
Calls of active or inactive are those of the source. The rule behind the calls is not given here.
PROPERTY: Activity

Below: 6 compounds and their reported Activity.
>  <COMPOUND>
[O-][n+]1onc2ccc(/C=C/c3ccccc3)cc21

>  <TARGET SYSTEM>
Trypanosoma cruzi

>  <MEASURED RESULT>
Active

$$$$
>  <COMPOUND>
CCCCNC(=O)N/N=C/c1ccc([N+](=O)[O-])s1

>  <TARGET SYSTEM>
Trypanosoma cruzi

>  <MEASURED RESULT>
Active

$$$$
>  <COMPOUND>
O=C(O)c1ccc(-c2nsc(CO)n2)cc1

>  <TARGET SYSTEM>
Trypanosoma cruzi

>  <MEASURED RESULT>
Active

$$$$
>  <COMPOUND>
O=S(=O)(/C=C\c1ccc2no[n+]([O-])c2c1)c1ccccc1

>  <TARGET SYSTEM>
Trypanosoma cruzi

>  <MEASURED RESULT>
Active

$$$$
>  <COMPOUND>
CCCCNC(=O)N/N=C/c1c(C)no[n+]1[O-]

>  <TARGET SYSTEM>
Trypanosoma cruzi

>  <MEASURED RESULT>
Active

$$$$
>  <COMPOUND>
CCCCNC(=O)c1ccc2no[n+]([O-])c2c1

>  <TARGET SYSTEM>
Trypanosoma cruzi

>  <MEASURED RESULT>
Active

$$$$

Hi, could you look up Activity for each item in my list?
1. O=Cc1cccc(OCCCN2C(=O)c3ccccc3C2=O)c1
2. O=C(Cn1ccnc1[N+](=O)[O-])NCc1ccccc1
3. CCCN(CCC(C)C1CC=C(C)CC1)Cc1ccc2c(c1)=[N+]([O-])C(C)(C)[N+]=2[O-] (configuration not stated)
4. O=C1C(=Cc2ccc([N+](=O)[O-])s2)C(=O)N(CCc2ccccc2)S(=O)(=O)N1CCc1ccccc1
5. CCNC(=S)N/N=C/c1ccc([N+](=O)[O-])o1

1: Active; 2: Active; 3: Active; 4: Active; 5: Active

---

target: Triosephosphate isomerase, glycosomal (Trypanosoma cruzi); assay: Inhibition of Trypanosoma cruzi triosephosphate isomerase at 400 uM after 2 hrs
Decision: inhibition compared against 20%; not below it gives Criterion met, below it gives Criterion not met.

// below: answered compounds
>  <STRUCTURE SMILES STRING>
O=C(/C=C/c1cccs1)c1ccccc1O

>  <CLASS>
Criterion met

$$$$
>  <STRUCTURE SMILES STRING>
CCOC(=O)c1nc(-c2cc(C(C)(C)C)c(O)c(C(C)(C)C)c2)ns1

>  <CLASS>
Criterion met

$$$$
>  <STRUCTURE SMILES STRING>
O/N=C1/C=CC(C=Cc2ccc(Cl)cc2)=C/C1=N/O

>  <CLASS>
Criterion met

$$$$
>  <STRUCTURE SMILES STRING>
CCNC(=S)N/N=C/C=C/c1ccc([N+](=O)[O-])o1

>  <CLASS>
Criterion met

$$$$
>  <STRUCTURE SMILES STRING>
CCCCCCNC(=O)N/N=C/c1c(-c2ccccc2)no[n+]1[O-]

>  <CLASS>
Criterion not met

$$$$

In plain terms: is recorded inhibition at least 20% for O=c1cc(-c2ccccc2)oc2ccccc12 ?
Criterion met

In plain terms: is recorded inhibition at least 20% for C/C(=C\c1ccc(N(C)C)cc1)[N+](=O)[O-] ?
Criterion met

In plain terms: is recorded inhibition at least 20% for Cc1c(/C=C/c2ccc(N(C)C)cc2)[n+]([O-])cn[n+]1[O-] ?
Criterion met

Data origin: ChEMBL document CHEMBL1629474
